This section presents molecules with their documented Fold Increase over WT CD80-IgV-Fe values.
biological target: CD28 (Homo sapiens, UniProt P10747); experiment: Jurkat/IL2 + CHO/OKT3 +/- PD-L1 reporter assay: PD-L1-dependent CD28 costimulation; format: cell-based; set-up: host or cells: Jurkat cells expressing an IL-2-luciferase reporter; details: Table E13; Jurkat/IL2 + CHO/OKT3/PD-L1; 5.0 nM
A bare number is all that is needed in reply.

>  <molecule>
T13R/Q33L/E35D/M47L/V68M/L85M (protein, UniProt P33681 35-288, looked up, variant T13R Q33L E35D M47L V68M L85M) T-lymphocyte activation …: VIHVTKEVKEVARLSCGHNVSVEELAQTRIYWLKDKKMVLTMMSGDLNIWPEYKNRTIFDITNNLSIMILALRPSDEGTYECVVMKYEKDAFKREHLAEVTLSVKADFPTPSISDFEIPTSNIRRIICSTSGGFPEPHLSWLENGEELNAINTTVSQDPETELYAVSSKLDFNMTTNHSFMCLIKYGHLRVNQTFNWNTTKQEHFPDNLLPSWAITLISVNGIFVICCLTYCFAPRCRERRRNERLRRESVRPV

>  <observed measurement>
0.4

$$$$
>  <molecule>
T13R/E35D/M47L/V68M (protein, UniProt P33681 35-288, looked up, variant T13R E35D M47L V68M) T-lymphocyte activation …: VIHVTKEVKEVARLSCGHNVSVEELAQTRIYWQKDKKMVLTMMSGDLNIWPEYKNRTIFDITNNLSIMILALRPSDEGTYECVVLKYEKDAFKREHLAEVTLSVKADFPTPSISDFEIPTSNIRRIICSTSGGFPEPHLSWLENGEELNAINTTVSQDPETELYAVSSKLDFNMTTNHSFMCLIKYGHLRVNQTFNWNTTKQEHFPDNLLPSWAITLISVNGIFVICCLTYCFAPRCRERRRNERLRRESVRPV

>  <observed measurement>
2.6

$$$$
>  <molecule>
T13R/Q33R/E35D/M38I/M47L/V68M/L85M (protein, UniProt P33681 35-288, looked up, variant T13R Q33R E35D M38I M47L V68M L85M) T-lymphocyte activation …: VIHVTKEVKEVARLSCGHNVSVEELAQTRIYWRKDKKIVLTMMSGDLNIWPEYKNRTIFDITNNLSIMILALRPSDEGTYECVVMKYEKDAFKREHLAEVTLSVKADFPTPSISDFEIPTSNIRRIICSTSGGFPEPHLSWLENGEELNAINTTVSQDPETELYAVSSKLDFNMTTNHSFMCLIKYGHLRVNQTFNWNTTKQEHFPDNLLPSWAITLISVNGIFVICCLTYCFAPRCRERRRNERLRRESVRPV

>  <observed measurement>
0.4

$$$$
>  <molecule>
H18Y/E35D/M47L/Y53F/V68M/A71G (protein, UniProt P33681 35-288, looked up, variant H18Y E35D M47L Y53F V68M A71G) T-lymphocyte activation …: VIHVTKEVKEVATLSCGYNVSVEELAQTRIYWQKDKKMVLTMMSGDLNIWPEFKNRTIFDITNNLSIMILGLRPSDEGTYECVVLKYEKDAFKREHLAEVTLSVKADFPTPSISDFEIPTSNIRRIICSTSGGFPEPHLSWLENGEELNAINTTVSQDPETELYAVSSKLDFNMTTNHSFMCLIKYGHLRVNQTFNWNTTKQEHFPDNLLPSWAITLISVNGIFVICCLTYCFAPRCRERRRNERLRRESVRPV

>  <observed measurement>
0.3

$$$$
>  <molecule>
H18Y/E35D/M38I/M47L/V68M/L85M (protein, UniProt P33681 35-288, looked up, variant H18Y E35D M38I M47L V68M L85M) T-lymphocyte activation …: VIHVTKEVKEVATLSCGYNVSVEELAQTRIYWQKDKKIVLTMMSGDLNIWPEYKNRTIFDITNNLSIMILALRPSDEGTYECVVMKYEKDAFKREHLAEVTLSVKADFPTPSISDFEIPTSNIRRIICSTSGGFPEPHLSWLENGEELNAINTTVSQDPETELYAVSSKLDFNMTTNHSFMCLIKYGHLRVNQTFNWNTTKQEHFPDNLLPSWAITLISVNGIFVICCLTYCFAPRCRERRRNERLRRESVRPV

>  <observed measurement>
0.5

$$$$
>  <molecule>
T13R/Q27L/Q33L/E35D/T41S/M47V/N48KN68M/L85M (protein) VIHVTKEVKEVARLSCGHNVSVEELALTRIYWLKDKKMVLSMMSGDVKIWPEYKNRTIFDITNNLSIMILALRPSDEGTYECVVMKYEKDAFKREHLAEVTLSVKAD

>  <observed measurement>
0.4

$$$$
>  <molecule>
E35D/M43I/M47L/V68M (protein, UniProt P33681 35-288, looked up, variant E35D M43I M47L V68M) T-lymphocyte activation …: VIHVTKEVKEVATLSCGHNVSVEELAQTRIYWQKDKKMVLTMISGDLNIWPEYKNRTIFDITNNLSIMILALRPSDEGTYECVVLKYEKDAFKREHLAEVTLSVKADFPTPSISDFEIPTSNIRRIICSTSGGFPEPHLSWLENGEELNAINTTVSQDPETELYAVSSKLDFNMTTNHSFMCLIKYGHLRVNQTFNWNTTKQEHFPDNLLPSWAITLISVNGIFVICCLTYCFAPRCRERRRNERLRRESVRPV

>  <observed measurement>
2.7

$$$$
>  <molecule>
T13R/Q33R/E35D/M38I/M47L/V68M (protein, UniProt P33681 35-288, looked up, variant T13R Q33R E35D M38I M47L V68M) T-lymphocyte activation …: VIHVTKEVKEVARLSCGHNVSVEELAQTRIYWRKDKKIVLTMMSGDLNIWPEYKNRTIFDITNNLSIMILALRPSDEGTYECVVLKYEKDAFKREHLAEVTLSVKADFPTPSISDFEIPTSNIRRIICSTSGGFPEPHLSWLENGEELNAINTTVSQDPETELYAVSSKLDFNMTTNHSFMCLIKYGHLRVNQTFNWNTTKQEHFPDNLLPSWAITLISVNGIFVICCLTYCFAPRCRERRRNERLRRESVRPV

>  <observed measurement>
0.4

$$$$

Quote Fold Increase over WT CD80-IgV-Fe reported for T13R/Q33R/E35D/M47L/V68M (protein, CD80 v381 ECD) VIHVTKEVKEVARLSCGHNVSVEELAQTRIYWRKDKKMVLTMMSGDLNIWPEYKNRTIFDITNNLSIMILALRPSDEGTYECVVLKYEKDAFKREHLAEVTLSVKADFPTPSISDFETPTSNIRRIICSTSGGFPEPHLSWLENGEELNAINTTVSQDPETELYAVSSKLDFNMTTNHSFMCLIKYGHLRVNQTFNWNTTKQEHFPDN please.
1.0
